Target: T1, FCHO1 μHD A629E (for ITC) (human, UniProt O14526 609-889, A629E)
T1 sequence (looked up): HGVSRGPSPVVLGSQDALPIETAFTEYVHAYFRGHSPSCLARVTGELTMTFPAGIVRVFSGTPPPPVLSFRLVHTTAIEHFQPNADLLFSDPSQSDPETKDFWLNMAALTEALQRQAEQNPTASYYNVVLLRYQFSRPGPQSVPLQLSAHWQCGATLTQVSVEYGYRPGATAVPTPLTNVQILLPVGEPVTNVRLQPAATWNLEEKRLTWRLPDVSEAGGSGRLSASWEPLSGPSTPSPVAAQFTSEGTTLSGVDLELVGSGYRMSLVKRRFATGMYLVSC
Assay: ITC; repeated injection of EPS15 peptides into a temperature-controlled solution of μHD, Nano ITC instrument (TA Instruments); minimum of four runs
Conditions: both partners purified

BINDER | Kd
NLDFFQSDPFVGSDPFKDDPFGK (peptide, UniProt P42566 616-638, looked up) [EPS15 616–638 peptide] | > 300 µM
